test system: Saccharomyces cerevisiae; assay: protein stability index of tFT-peptide fusion (C-terminal peptide) (PSI (0-1 scale)); higher = more stable (slower turnover); settings: genetic background: doa10 deletion; temperature: 30 C
Measured Attribute: protein stability index

| Seq | Target | Measured Attribute | Number |
| --- | --- | --- | --- |
| RHTVFFCQLLLV | Saccharomyces cerevisiae | protein stability index | 0.175 |
| WLCLAVLVRFPC | Saccharomyces cerevisiae | protein stability index | 0.262 |
| DDVRFLLWGLCC | Saccharomyces cerevisiae | protein stability index | 0.183 |
| YFFFPILCFCFF | Saccharomyces cerevisiae | protein stability index | 0.429 |
| CTLVVGLFVLVV | Saccharomyces cerevisiae | protein stability index | 0.168 |
| WSISFGLLVCWV | Saccharomyces cerevisiae | protein stability index | 0.154 |
| WSCVGLWGRFCC | Saccharomyces cerevisiae | protein stability index | 0.267 |
| FNLTCLLISFFN | Saccharomyces cerevisiae | protein stability index | 0.368 |
| TRHIGQYIHKIT | Saccharomyces cerevisiae | protein stability index | 0.151 |
| FGFFLFIFFFFR | Saccharomyces cerevisiae | protein stability index | 0.333 |
| VWFLLFVVWCGS | Saccharomyces cerevisiae | protein stability index | 0.186 |
| SGCWGRRLWFFN | Saccharomyces cerevisiae | protein stability index | 0.189 |

====

test system: Saccharomyces cerevisiae; experiment: protein stability index of tFT-peptide fusion (C-terminal peptide) (PSI (0-1 scale)); higher = more stable (slower turnover); settings: genetic background: wild type; temperature: 30 C
Some sequences, each annotated with its measured protein stability index.
Measured Attribute: protein stability index

| Seq | Number |
| --- | --- |
| LGDIYTLTNNEL [PHO13 C-terminal 12 aa] | 0.68 |
| VMQELRKLKNAM [GLO4 C-terminal 12 aa] | 0.64 |
| LEHYSLSTFVCC [YAL045C C-terminal 12 aa] | 0.348 |
| SPRLKENEHVTN [MPC54 C-terminal 12 aa] | 0.724 |
| RLIFYPDEYEQL [PRE3 C-terminal 12 aa] | 0.736 |
| AVYEELVHELFH [PSP1 C-terminal 12 aa] | 0.675 |
| VLGDVIKIAQRL [HOM6 C-terminal 12 aa] | 0.747 |
| KPEEEKETLQEE [PAF1 C-terminal 12 aa] | 0.649 |
| QTAISMNDEDDA [GVP36 C-terminal 12 aa] | 0.701 |
| DIIYFRAGAGKN [OLA1 C-terminal 12 aa] | 0.667 |
| GKGAIDGFFKRK [RNH202 C-terminal 12 aa] | 0.657 |
| YYYYNKYKEFYP [TMH11 C-terminal 12 aa] | 0.704 |
| KETTTRNYRGTC [GAD1 C-terminal 12 aa] | 0.707 |
| NDDNFDDAQEQQ [SEC2 C-terminal 12 aa] | 0.7 |
| RSWDEFIGFKAY [CPA2 C-terminal 12 aa] | 0.615 |
| VFPETDSIFEPV [RAF1 C-terminal 12 aa] | 0.715 |
| KLSAPIFSILHS [APT2 C-terminal 12 aa] | 0.504 |
| YQVSIAKVPRLT [BUD5 C-terminal 12 aa] | 0.488 |
| KSARSWVRSGRL [YPR053C C-terminal 12 aa] | 0.77 |
| NGMWQKPEPGVS [YIL067C C-terminal 12 aa] | 0.706 |
| HRIASKIRSKLR [GIP4 C-terminal 12 aa] | 0.714 |
| DYSFVNTFRDYE [HAL9 C-terminal 12 aa] | 0.736 |
| LLLSAFLRNLVP [YAL016C-A C-terminal 12 aa] | 0.375 |
| WFSCSLIFRNSW [YJR140W-A C-terminal 12 aa] | 0.618 |
| NSAAFLLMSLKS [STB3 C-terminal 12 aa] | 0.679 |
| SGKLASKKRDKK [MRPL36 C-terminal 12 aa] | 0.651 |
| DAIDNSDEITQD [IRR1 C-terminal 12 aa] | 0.703 |
| GLQKKNIKIHGF [SUI1 C-terminal 12 aa] | 0.684 |
| SHPIDVNLQFIM [MCA1 C-terminal 12 aa] | 0.689 |
| ALSKDGIYTITN [PAU13 C-terminal 12 aa] | 0.679 |
| NIILNWIYPYQR [COX18 C-terminal 12 aa] | 0.778 |
| KESIQQQEDDLL [SEC17 C-terminal 12 aa] | 0.692 |
| TKARTLGEGSVN [YDR476C C-terminal 12 aa] | 0.674 |
| VQQMVEMQGKMR [SGM1 C-terminal 12 aa] | 0.685 |
| KKLNFKLCQAFM [NUP85 C-terminal 12 aa] | 0.618 |
| GRENGDVNIWAV [MDV1 C-terminal 12 aa] | 0.715 |
| DISVQQVKIASK [SPF1 C-terminal 12 aa] | 0.686 |
| SDGFANNRCQRK [YOR034C-A C-terminal 12 aa] | 0.718 |
| HGGNVSSSTYQA [GND1 C-terminal 12 aa] | 0.696 |
| DERRQPVSNLRM [YDL163W C-terminal 12 aa] | 0.658 |

====

test system: Saccharomyces cerevisiae; experiment: protein stability index of tFT-peptide fusion (C-terminal peptide) (PSI (0-1 scale)); higher = more stable (slower turnover); conditions: genetic background: wild type; temperature: 30 C
Measured Attribute: protein stability index

| Seq | Target | Number |
| --- | --- | --- |
| LPPLPPLILFPL | Saccharomyces cerevisiae | 0.684 |
| KSNRCVQSKRQQ | Saccharomyces cerevisiae | 0.686 |
| ESIGCINIRMRG | Saccharomyces cerevisiae | 0.694 |
| IALTSCVPDLSF | Saccharomyces cerevisiae | 0.691 |
| PLSPRLPRRRLP | Saccharomyces cerevisiae | 0.681 |
| KKKMINEKKKKD | Saccharomyces cerevisiae | 0.701 |
| ICRGGYELLELG | Saccharomyces cerevisiae | 0.68 |
| EKKKSCIMILRK | Saccharomyces cerevisiae | 0.701 |

====

Some sequences, each annotated with its measured protein stability index.
tested on: Saccharomyces cerevisiae; test: protein stability index of tFT-peptide fusion (C-terminal peptide) (PSI (0-1 scale)); higher = more stable (slower turnover); settings: genetic background: das1 deletion; temperature: 30 C

| Seq | protein stability index |
| --- | --- |
| QLAIALSLSEIN [UFO1 C-terminal 12 aa] | 0.694 |
| YRVARKPSQPVM [MTO1 C-terminal 12 aa] | 0.685 |
| TPTDSTPTKKDI [LAC1 C-terminal 12 aa] | 0.694 |
| KNRFSNGRWGRR [SLD2 C-terminal 12 aa] | 0.701 |
| SAIGSDIVNSIF [LSB1 C-terminal 12 aa] | 0.704 |
| LGDIYTLTNNEL [PHO13 C-terminal 12 aa] | 0.701 |
| SNNATHNCGNYF [YGR122W C-terminal 12 aa] | 0.712 |
| KNLWHHKINNLN [RAM2 C-terminal 12 aa] | 0.699 |

====

Some sequences, each annotated with its measured protein stability index.
test system: Saccharomyces cerevisiae; assay: protein stability index of tFT-peptide fusion (C-terminal peptide) (PSI (0-1 scale)); higher = more stable (slower turnover); details: genetic background: cdc53-1; temperature: 37 C

| Seq | Target | protein stability index |
| --- | --- | --- |
| FYSLYLSLVCFN | Saccharomyces cerevisiae | 0.389 |
| FFLDRLVIRLIA | Saccharomyces cerevisiae | 0.173 |
| VFRLLLFFVFVF | Saccharomyces cerevisiae | 0.183 |
| TSPYTSFAHTSL | Saccharomyces cerevisiae | 0.739 |
| VCSRWFFVFVVR | Saccharomyces cerevisiae | 0.424 |
| HVPPVFQASLSP | Saccharomyces cerevisiae | 0.737 |
| KLCVGLVLSFVC | Saccharomyces cerevisiae | 0.503 |
| GCGFSFFHIVVL | Saccharomyces cerevisiae | 0.113 |
| HTYSFRLLFIFL | Saccharomyces cerevisiae | 0.456 |
| PRLWLYCLIISL | Saccharomyces cerevisiae | 0.214 |
| LGVLVVAFCGGC | Saccharomyces cerevisiae | 0.554 |
| GFVISSCRLFIL | Saccharomyces cerevisiae | 0.632 |
| CLCFFMSILWWV | Saccharomyces cerevisiae | 0.498 |
| RWGLFIGIVIGF | Saccharomyces cerevisiae | 0.211 |
| AVRLPFPLLVHL | Saccharomyces cerevisiae | 0.195 |
| VAFILVVCKGIG | Saccharomyces cerevisiae | 0.278 |
| LCFFLAFSFVFF | Saccharomyces cerevisiae | 0.324 |
| WSCVGLWGRFCC | Saccharomyces cerevisiae | 0.748 |
| LIICRSFLCKVR | Saccharomyces cerevisiae | 0.256 |
| FRLFSLWFCWVR | Saccharomyces cerevisiae | 0.0999 |
| SSVLWVMFVFFY | Saccharomyces cerevisiae | 0.387 |
| IVFFVLFRFWRF | Saccharomyces cerevisiae | 0.383 |
| CFPFYVSCLLVL | Saccharomyces cerevisiae | 0.311 |
| GMGHLSNVCLKT | Saccharomyces cerevisiae | 0.765 |
| SIRIIVVVRGAS | Saccharomyces cerevisiae | 0.628 |
| FVMTYCLMSVSK | Saccharomyces cerevisiae | 0.0364 |
| FFSFTVLVSYGF | Saccharomyces cerevisiae | 0.256 |
| VDGVSFFVVLLC | Saccharomyces cerevisiae | 0.503 |
| LILIVVVAGSVG | Saccharomyces cerevisiae | 0.392 |
| TGPVFVSFRLLH | Saccharomyces cerevisiae | 0.752 |
| WVRLWGVLEAQG | Saccharomyces cerevisiae | 0.445 |
| GLFLYCCLVSLL | Saccharomyces cerevisiae | 0.321 |
| RKQLSCIMIWCK | Saccharomyces cerevisiae | 0.405 |
| DVVVIFGILCYC | Saccharomyces cerevisiae | 0.16 |
| GWLVGLGLVFFT | Saccharomyces cerevisiae | 0.664 |
| LNVEEGGGLENV | Saccharomyces cerevisiae | 0.727 |
| MALAVRVVKCGA | Saccharomyces cerevisiae | 0.376 |
| PKRNNRKAQQIS | Saccharomyces cerevisiae | 0.698 |
| LGCLVWGGVWGV | Saccharomyces cerevisiae | 0.759 |
| FFLKPVPSLFLC | Saccharomyces cerevisiae | 0.597 |
| RYQDLSDWRRIS | Saccharomyces cerevisiae | 0.657 |
| ACFLFPSHLLIS | Saccharomyces cerevisiae | 0.689 |
| FSFLLYASLVTH | Saccharomyces cerevisiae | 0.343 |
| RLGSLVPLAKQL | Saccharomyces cerevisiae | 0.745 |
| IFLKFGLLRSLL | Saccharomyces cerevisiae | 0.894 |
| REAFVVLAVFFH | Saccharomyces cerevisiae | 0.321 |
| RTFPYSALSFVS | Saccharomyces cerevisiae | 0.712 |
| LEVHGSCIFICV | Saccharomyces cerevisiae | 0.546 |
| CVISLVTAVRLF | Saccharomyces cerevisiae | 0.553 |
| FGPRLLRVMRLL | Saccharomyces cerevisiae | 0.712 |
| FFSLMFVFLTVF | Saccharomyces cerevisiae | 0.131 |
| SPSFLVIFTMLL | Saccharomyces cerevisiae | 0.577 |
| FFDLSLYSLCLC | Saccharomyces cerevisiae | 0.69 |
| KWGRFQQVMVIN | Saccharomyces cerevisiae | 0.664 |
| VSVFSLFLFLRV | Saccharomyces cerevisiae | 0.194 |
| LCFGMVELMWIY | Saccharomyces cerevisiae | 0.52 |
| LFFWVLTVMFVW | Saccharomyces cerevisiae | 0.23 |
| LCLLFLSFFFVC | Saccharomyces cerevisiae | 0.515 |
| SVFGLLSVCFFY | Saccharomyces cerevisiae | 0.567 |
| LCLLCWIPCSFR | Saccharomyces cerevisiae | 0.628 |
| VFFLLSVYMVMM | Saccharomyces cerevisiae | 0.29 |
| VGSSSGRLLYLC | Saccharomyces cerevisiae | 0.73 |
| RSKLGVLVILWF | Saccharomyces cerevisiae | 0.391 |
| EVGFHRRWVALS | Saccharomyces cerevisiae | 0.723 |
| VWVAWLGGAILA | Saccharomyces cerevisiae | 0.188 |
| GKKKREWKKNRI | Saccharomyces cerevisiae | 0.733 |
| LFPVFFPLFAPA | Saccharomyces cerevisiae | 0.336 |
| RARRFGKWERSG | Saccharomyces cerevisiae | 0.761 |
| LQIKSFTSQRLA | Saccharomyces cerevisiae | 0.698 |
| VSVVLKTQRVVC | Saccharomyces cerevisiae | 0.607 |
| LGGCVSYINLLA | Saccharomyces cerevisiae | 0.682 |
